- assay_system: UniProtKB Q9UM73
- Sequence (Q9UM73 whole entry): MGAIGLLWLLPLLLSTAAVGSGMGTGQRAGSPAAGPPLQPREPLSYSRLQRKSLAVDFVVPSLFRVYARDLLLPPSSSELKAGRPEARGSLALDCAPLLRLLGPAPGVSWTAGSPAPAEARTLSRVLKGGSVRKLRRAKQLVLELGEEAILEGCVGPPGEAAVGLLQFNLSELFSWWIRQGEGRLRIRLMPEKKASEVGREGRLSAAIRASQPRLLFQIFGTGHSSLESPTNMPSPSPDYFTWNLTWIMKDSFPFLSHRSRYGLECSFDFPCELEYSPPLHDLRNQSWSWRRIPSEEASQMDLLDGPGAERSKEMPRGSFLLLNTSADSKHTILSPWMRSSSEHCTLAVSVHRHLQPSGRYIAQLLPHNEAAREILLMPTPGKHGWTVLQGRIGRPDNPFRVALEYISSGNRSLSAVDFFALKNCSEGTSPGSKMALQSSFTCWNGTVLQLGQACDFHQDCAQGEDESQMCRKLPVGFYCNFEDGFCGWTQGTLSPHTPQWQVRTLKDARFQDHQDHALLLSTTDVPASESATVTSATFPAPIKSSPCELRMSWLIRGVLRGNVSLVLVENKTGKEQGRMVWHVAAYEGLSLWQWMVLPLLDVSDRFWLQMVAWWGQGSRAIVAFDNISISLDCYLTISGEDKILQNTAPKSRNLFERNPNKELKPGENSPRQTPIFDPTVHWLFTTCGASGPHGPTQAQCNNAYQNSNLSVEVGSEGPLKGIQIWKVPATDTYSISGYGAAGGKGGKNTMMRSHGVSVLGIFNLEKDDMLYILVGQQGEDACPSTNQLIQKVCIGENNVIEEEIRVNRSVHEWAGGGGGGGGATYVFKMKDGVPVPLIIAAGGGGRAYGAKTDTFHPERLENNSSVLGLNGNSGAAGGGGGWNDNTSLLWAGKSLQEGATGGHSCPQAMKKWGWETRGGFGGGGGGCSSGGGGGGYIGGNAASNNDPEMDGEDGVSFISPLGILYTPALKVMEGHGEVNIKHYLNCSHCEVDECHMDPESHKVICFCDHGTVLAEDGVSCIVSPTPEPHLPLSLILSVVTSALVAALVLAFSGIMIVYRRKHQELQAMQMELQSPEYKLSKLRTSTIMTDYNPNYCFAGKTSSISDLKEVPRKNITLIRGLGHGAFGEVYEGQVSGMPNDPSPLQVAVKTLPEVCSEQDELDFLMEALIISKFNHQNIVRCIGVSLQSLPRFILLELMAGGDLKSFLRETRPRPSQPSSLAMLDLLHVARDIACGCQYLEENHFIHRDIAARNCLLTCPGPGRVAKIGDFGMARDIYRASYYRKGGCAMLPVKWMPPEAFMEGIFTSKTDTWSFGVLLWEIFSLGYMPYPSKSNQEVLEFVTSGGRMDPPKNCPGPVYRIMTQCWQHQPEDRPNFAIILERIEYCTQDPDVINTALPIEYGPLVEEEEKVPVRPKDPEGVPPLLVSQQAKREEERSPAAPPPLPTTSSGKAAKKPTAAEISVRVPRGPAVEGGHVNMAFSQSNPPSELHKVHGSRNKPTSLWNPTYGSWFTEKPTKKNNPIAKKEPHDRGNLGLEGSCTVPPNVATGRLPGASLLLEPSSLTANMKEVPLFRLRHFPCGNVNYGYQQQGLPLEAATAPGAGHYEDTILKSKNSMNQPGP
result_type: IC50 (nM)

line_notation | result_type | data_value
CN1CCN(Cc2ccc(NC(=O)c3n[nH]cc3Nc3ncnc4sccc34)cc2)CC1 | IC50 | 94.1

====

- assay_system: CDK2/Cyclin A1 (Homo sapiens)
- experiment_notes: Inhibition of human CDK2/Cyclin A1 using histone H1 as substrate preincubated for 20 mins followed by [gamma-33P]-ATP addition measure after 120 mins by filter binding method
- Assay type: protein-complex assay
result_type: IC50 (µM)

line_notation | data_value
Cc1sc2ncnc(Nc3c[nH]nc3C(=O)Nc3ccc(CN4CCN(C)CC4)cc3)c2c1C | 0.0019
CC(C)c1cc2c(Nc3c[nH]nc3C(=O)Nc3ccc(CN4CCOCC4)cc3)ncnc2s1 | 0.00985
COc1ccc2c(Nc3c[nH]nc3C(=O)Nc3ccc(CN4CCN(C)CC4)cc3)ccnc2c1 | 0.697
O=C(Nc1c[nH]nc1C(=O)Nc1ccc(CN2CCOCC2)cc1)c1ccccc1 | 0.318
O=C(Nc1ccc(CN2CCOCC2)cc1)c1n[nH]cc1Nc1nc(Cl)nc2ccccc12 | 0.0586
